Ref: patent US20100061928A1

Tested on: grafted B16 F0 murine melanoma tumour
protocol-text: Biodistribution of the ^125I-labelled molecules in the melanoma-bearing mouse (autoradiography of whole-body sections)
condition-notes: kidney; 3 H
Counter-ions that a name gives are not always drawn.
// assign Met if Biodistribution, Mean, kidney falls strictly below 3, else Not met (ties count as Not met)

1) CCCN(CCC)CCCCNC(=O)c1ccc2cc(I)ccc2n1 [compound 49, dihydrochloride]	Not met

Here is the next item to consider.
// query In plain terms, does CCN(CC)CCNC(=O)c1cccc2cc3cc(I)ccc3nc12 [compound 111, dihydrochloride] come in under 3 for Biodistribution, Mean, kidney?
// result Met

###

Test system: grafted B16 F0 murine melanoma tumour
protocol-text: Biodistribution of the ^125I-labelled molecules in the melanoma-bearing mouse (autoradiography of whole-body sections)
condition-notes: 3 H after i.v. administration, ^125I-labelled compound
Counter-ions that a name gives are not always drawn.
attribute-measured: Concentration of radioactivity, Sc (stomach contents), Mean (% ID/g)
Provide the reading as a plain figure in % ID/g.

See these solved cases before continuing.
1) CCN(CC)CCNC(=O)c1nc2ccc(I)cc2[nH]1.Cl.Cl	17.98
2) CCN(CC)CCNC(=O)c1cc2c(I)cccc2s1.Cl	5.93

Now for the compound whose Concentration of radioactivity, Sc (stomach contents), Mean we want.
// CCN(CC)CCNC(=O)c1ccc2cc(I)ccc2c1 [compound 3, hydrochloride] : Concentration of radioactivity, Sc (stomach contents), Mean value = 24.69

###

Test system: grafted B16 F0 murine melanoma tumour
protocol-text: Biodistribution of the ^125I-labelled molecules in the melanoma-bearing mouse (autoradiography of whole-body sections)
condition-notes: 72 H after i.v. administration, ^125I-labelled compound
Counter-ions that a name gives are not always drawn.
attribute-measured: Concentration of radioactivity, B 16 (tumour), Mean (% ID/g)
Provide the reading as a plain figure in % ID/g.

1. CCN(CC)CCNC(=O)c1ccc2cc(I)ccc2c1 [compound 3, hydrochloride]	1.52
2. CCN(CC)CCNC(=O)c1cc2cc(I)ccc2[nH]1 [compound 10, hydrochloride]	0.84
3. CCN(CC)CCNC(=O)c1ccc2cc(I)ccc2n1.Cl.Cl [compound 31]	5.93
4. CCN(CC)CCNC(=O)c1cc2c(I)cccc2s1.Cl [compound 13]	1.73

// CCN(CC)CCNC(=O)c1ccc(I)nc1 [compound 7, dihydrochloride] : Concentration of radioactivity, B 16 (tumour), Mean value = 0.87

// CCN(CC)CCNC(=O)c1nc2ccc(I)cc2[nH]1.Cl.Cl [compound 26] : Concentration of radioactivity, B 16 (tumour), Mean value = 4.54

###

In this section, each of the compounds is paired with its reported Biodistribution, Mean, kidney.
Tested on: grafted B16 F0 murine melanoma tumour
protocol-text: Biodistribution of the ^125I-labelled molecules in the melanoma-bearing mouse (autoradiography of whole-body sections)
condition-notes: kidney; 6 H
Counter-ions that a name gives are not always drawn.

See these solved cases before continuing.
1. CCN(CC)CCNC(=O)c1cc2c(I)cccc2cn1 [compound 39, dihydrochloride]	2.11
2. CCN(CC)CCNC(=O)c1cccc2cc3cc(I)ccc3nc12 [compound 111, dihydrochloride]	0.77
3. CCN(CC)CCNC(=O)c1c[nH]c2ccc(I)cc2c1=O [compound 35, dihydrochloride]	0.20
4. CCN(CC)CCNC(=O)c1cnc2cc(I)ccc2n1.Cl.Cl [compound 46]	7.69
5. CCN(CC)CCNC(=O)c1ccc2cncc(I)c2n1.Cl.Cl [compound 142]	1.20

Now for the compound whose Biodistribution, Mean, kidney we want.
// CCCN(CCC)CCCCNC(=O)c1ccc2cc(I)ccc2n1 [compound 49, dihydrochloride] : Biodistribution, Mean, kidney value = 7.98
